Target: T1, hCMV gH + gL + UL128 + UL130 + UL131A (5-member complex; HEK293T co-transfectant) (hCMV, UniProt P12824 24-743; P16832 31-278; P16837 1-171; P16772 1-214)
T1 construct: whole, on cells; in the functional rows it stands for the complex on virions or transduced cells of the strain or isolate named in the readout; also called gH/gL/UL128-131A complex; pentameric complex
Assay: cell competition; competitor 8I21-biotin
QUANTITY NAME: Inhibition of binding (%)
One number for each entry, in %.

Lab note: 15D8 (antibody, V domains shown, human IgG; also called 15D8-biotin) VH: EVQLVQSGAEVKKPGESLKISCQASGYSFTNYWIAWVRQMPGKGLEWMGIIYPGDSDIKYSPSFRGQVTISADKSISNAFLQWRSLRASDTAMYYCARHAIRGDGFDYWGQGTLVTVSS VL: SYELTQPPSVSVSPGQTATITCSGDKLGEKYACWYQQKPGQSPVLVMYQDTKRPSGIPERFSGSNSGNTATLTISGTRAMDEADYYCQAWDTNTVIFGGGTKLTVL gave Inhibition of binding (%) of 0
